# merged literature set: pKi with Androgen receptor (Homo sapiens, UniProt P10275)
# Target Entity: Androgen receptor (Homo sapiens, UniProt P10275)
# Sequence (P10275 whole entry): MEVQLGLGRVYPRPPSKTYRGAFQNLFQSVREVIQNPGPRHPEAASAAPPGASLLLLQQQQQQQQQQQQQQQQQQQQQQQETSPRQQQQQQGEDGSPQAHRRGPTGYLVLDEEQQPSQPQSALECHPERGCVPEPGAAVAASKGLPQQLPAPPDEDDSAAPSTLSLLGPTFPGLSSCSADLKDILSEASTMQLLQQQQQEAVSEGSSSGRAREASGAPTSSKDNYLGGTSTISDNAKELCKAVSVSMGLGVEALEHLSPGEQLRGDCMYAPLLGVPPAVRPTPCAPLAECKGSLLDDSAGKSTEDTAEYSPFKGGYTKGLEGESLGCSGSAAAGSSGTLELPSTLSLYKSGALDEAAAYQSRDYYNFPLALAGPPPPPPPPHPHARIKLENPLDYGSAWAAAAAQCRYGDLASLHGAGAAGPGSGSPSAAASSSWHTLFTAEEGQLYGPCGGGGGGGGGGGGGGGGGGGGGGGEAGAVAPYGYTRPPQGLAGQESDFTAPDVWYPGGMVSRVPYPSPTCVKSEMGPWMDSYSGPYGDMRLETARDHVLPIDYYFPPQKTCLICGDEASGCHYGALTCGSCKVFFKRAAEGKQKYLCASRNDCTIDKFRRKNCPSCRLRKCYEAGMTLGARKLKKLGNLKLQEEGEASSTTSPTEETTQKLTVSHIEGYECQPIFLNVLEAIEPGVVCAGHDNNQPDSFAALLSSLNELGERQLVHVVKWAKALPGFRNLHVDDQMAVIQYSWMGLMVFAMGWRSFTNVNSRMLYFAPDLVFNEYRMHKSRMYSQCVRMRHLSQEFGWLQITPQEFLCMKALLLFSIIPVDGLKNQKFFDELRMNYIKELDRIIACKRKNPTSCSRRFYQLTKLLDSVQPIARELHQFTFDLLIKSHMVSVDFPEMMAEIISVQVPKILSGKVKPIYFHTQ
pKi: −log10 of the molar value.
Assay Metric: pKi

Worked examples follow.
                                   compound  assay_value
0  COc1c(O)ccc2oc(=O)c3c(ccc4[nH]c(=O)cc(C)c43)c12         8.40
1  C=CCC1Oc2cccc(OC)c2-c2ccc3c(c21)C(C)=CC(C)(C)N3 (stereo unspecified)         5.91
2   COc1ccc(F)cc1-c1c[nH]c2c(NC(C)=O)cccc12         5.21
3  CCN(c1cc(C)cc(C)c1)c1cc(C(=O)N2CCCC2)n(C)c1         5.57

[a] O=C1[C@@H]2C3C=CC(C3)[C@@H]2C(=O)N1c1ccc2ccccc2c1
[b] Cc1c[nH]c2c(-c3c(F)cc4c(c3F)/C(=N/OC(C)(C)C)CC(C)(C)N4)cccc12
Lookup: Sorting by pKi in descending order, would a or b appear first? Write down the label of the entry you select.
Found: a

====

This section presents Ki values reported for Androgen receptor (Homo sapiens, UniProt P10275) in the literature.
Assay Metric: Ki (nM)

Here's what some known entries look like.
In [3]: df
Out[3]:
                                   molecule  assay_metric  assay_value
0  COc1cccc2c1-c1ccc3c(c1C(c1ccccc1)O2)C(C)=CC(C)(C)N3 (stereo in doubt; 10)            Ki         2660
1  CCCCC1Oc2ccc(C)cc2-c2ccc3c(c21)C(C)=CC(C)(C)N3 (stereo not given)            Ki          903

[A] CC1=CC(C)(C)Nc2ccc3c(c21)/C(=C/c1cccc(F)c1)Oc1ccccc1-3
[B] C=CCC1Oc2cccc(OC(F)F)c2-c2ccc3c(c21)C(C)=CC(C)(C)N3 (stereo not given)
Lookup: Looking at recorded values for Ki, does A or B come in lower? I would appreciate it if you answered with the label of your choice.
Found: B
(B: 96.3 nM, A: 798 nM)
